Biological target: T1, human CD3εδ-Fc heterodimer (Hu CD3ε Fc / CD3δ Fc-HIS) (human, UniProt P04234 22-100)
T1 construct: range 22-100; Produced in HEK 293 cells with a heterologous signal peptide; heterodimer purified by Ni Sepharose and Mono Q; also called Hu CD3εδ Fc heterodimer; CD3εδ Fc-HIS heterodimer; not shown: Fc-HIS part of CD3δ Fc-HIS
T1 sequence (chain, as listed by the source mutant, form in doubt, chain 1 of 2): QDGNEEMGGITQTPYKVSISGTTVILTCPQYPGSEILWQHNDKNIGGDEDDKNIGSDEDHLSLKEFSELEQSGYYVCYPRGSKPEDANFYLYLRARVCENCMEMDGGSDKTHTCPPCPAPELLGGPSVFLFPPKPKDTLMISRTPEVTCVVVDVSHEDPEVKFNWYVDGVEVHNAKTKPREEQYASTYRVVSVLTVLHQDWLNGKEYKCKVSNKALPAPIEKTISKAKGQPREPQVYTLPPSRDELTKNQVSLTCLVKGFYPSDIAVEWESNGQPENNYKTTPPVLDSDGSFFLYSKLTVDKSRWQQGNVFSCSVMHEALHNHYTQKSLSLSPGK
T1 sequence (P04234 22-100, stated change not applied, form in doubt, chain 2 of 2): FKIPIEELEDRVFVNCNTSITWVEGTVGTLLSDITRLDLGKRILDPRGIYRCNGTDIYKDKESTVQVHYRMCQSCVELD
Test: SPR (Biacore 8K), yeast-produced Fab, monovalent, pH 6.0
metric: pKd
Numbers only, as −log10 of the molar value.

Below are worked cases with known answers.
query: Quick check: pKd of Fab of ADI-74968 (Antibody No. 6) (Fab, V domains shown, Fab made by papain digestion of the human IgG1 (yeast- or CHO-produced); also called Antibody No. 6 Fab; ADI-74968 Fab) VH: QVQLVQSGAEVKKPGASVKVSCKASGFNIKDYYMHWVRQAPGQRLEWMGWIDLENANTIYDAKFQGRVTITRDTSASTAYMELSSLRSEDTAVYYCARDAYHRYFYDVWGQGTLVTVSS VL: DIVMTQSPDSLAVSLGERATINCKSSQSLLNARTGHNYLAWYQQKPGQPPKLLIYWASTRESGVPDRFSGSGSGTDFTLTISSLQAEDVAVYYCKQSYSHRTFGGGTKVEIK ?
result: 8.22

query: Quick check: pKd of Fab of ADI-79845 (Antibody No. 11) (Fab, V domains shown, Fab made by papain digestion of the yeast-produced human IgG1; also called Antibody No. 11 Fab; ADI-79845 Fab) VH: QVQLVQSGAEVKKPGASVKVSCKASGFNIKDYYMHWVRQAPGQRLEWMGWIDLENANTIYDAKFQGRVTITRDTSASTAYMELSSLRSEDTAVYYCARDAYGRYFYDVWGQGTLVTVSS VL: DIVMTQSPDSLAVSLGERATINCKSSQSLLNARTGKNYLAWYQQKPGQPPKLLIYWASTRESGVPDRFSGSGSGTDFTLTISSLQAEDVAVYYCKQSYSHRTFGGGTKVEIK ?
result: 8.71

query: Quick check: pKd of Fab of ADI-48587 (Antibody No. 2) (Fab, V domains shown, Fab made by papain digestion of the human IgG1 (yeast- or CHO-produced); also called Antibody No. 2 Fab; ADI-48587 Fab) VH: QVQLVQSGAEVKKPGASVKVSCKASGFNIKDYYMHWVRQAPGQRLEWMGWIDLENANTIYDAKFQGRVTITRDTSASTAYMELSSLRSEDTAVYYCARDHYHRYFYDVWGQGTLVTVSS VL: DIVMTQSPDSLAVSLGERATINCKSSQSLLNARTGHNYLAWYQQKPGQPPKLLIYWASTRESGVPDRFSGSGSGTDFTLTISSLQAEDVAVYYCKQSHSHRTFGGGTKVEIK ?
result: 7.80

query: Quick check: pKd of Fab of ADI-74967 (Antibody No. 5) (Fab, V domains shown, Fab made by papain digestion of the human IgG1 (yeast- or CHO-produced); also called Antibody No. 5 Fab; ADI-74967 Fab) VH: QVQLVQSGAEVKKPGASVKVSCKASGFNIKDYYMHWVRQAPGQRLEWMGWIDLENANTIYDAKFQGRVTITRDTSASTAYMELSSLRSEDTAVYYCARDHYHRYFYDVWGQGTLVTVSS VL: GIVMTQSPDSLAVSLGERATINCKSSQSLLNARTGKNYLAWYQQKPGQPPKLLIYWASTRESGVPDRFSGSGSGTDFTLTISSLQAEDVAVYYCKQSHSHRTFGGGTKVEIK ?
result: 8.07

query: Quick check: pKd of Fab of ADI-74966 (Antibody No. 4) (Fab, V domains shown, Fab made by papain digestion of the human IgG1 (yeast- or CHO-produced); also called Antibody No. 4 Fab; ADI-74966 Fab) VH: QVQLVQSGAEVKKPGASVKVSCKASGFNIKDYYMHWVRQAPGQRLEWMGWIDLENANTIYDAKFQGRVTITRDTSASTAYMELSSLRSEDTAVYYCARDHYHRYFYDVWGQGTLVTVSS VL: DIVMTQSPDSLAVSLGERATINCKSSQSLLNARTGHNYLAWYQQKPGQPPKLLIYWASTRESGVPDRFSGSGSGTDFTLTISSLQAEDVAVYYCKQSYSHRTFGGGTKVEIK ?
result: 7.79

Pending binder:
query: Quick check: pKd of Fab of ADI-79844 (Antibody No. 10) (Fab, V domains shown, Fab made by papain digestion of the yeast-produced human IgG1; also called Antibody No. 10 Fab; ADI-79844 Fab) VH: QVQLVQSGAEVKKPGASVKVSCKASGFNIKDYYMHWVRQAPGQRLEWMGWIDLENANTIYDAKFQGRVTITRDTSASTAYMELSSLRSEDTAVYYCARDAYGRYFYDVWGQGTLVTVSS VL: DIVMTQSPDSLAVSLGERATINCKSSQSLLNARTGKNYLAWYQQKPGQPPKLLIYWASTRESGVPDRFSGSGSGTDFTLTISSLQAEDVAVYYCKQSHSRRTFGGGTKVEIK ?
result: 8.63
